# credit: paper PMC11550998

We begin with a simple list: items and their reported Cmax.
- ASSAY_PROTOCOL: Mouse in vivo pharmacokinetic studies
- Set-up: species or system C57BL/6 male mice
- DETAILS: male, C57BL/6, plasma, oral gavage, 5 mg/kg
I only need the number, in ng/mL, no unit after it.

1. CCC1(CC)C[C@H](CCN2CCN(c3ccc(O)cc3)CC2)OC1=O = 57
2. CCC1(CC)C[C@@H](CCN2CCN(c3ccc(O)cc3)CC2)OC1=O = 123

Please examine the following record next.
Could you share which Cmax value was measured for CCC1(CC)CC(CCN2CCN(c3ccc(O)cc3)CC2)OC1=O (stereo not drawn) ?
49

----------
- SYSTEM: UniProt P08913
- Sequence (P08913 1-465): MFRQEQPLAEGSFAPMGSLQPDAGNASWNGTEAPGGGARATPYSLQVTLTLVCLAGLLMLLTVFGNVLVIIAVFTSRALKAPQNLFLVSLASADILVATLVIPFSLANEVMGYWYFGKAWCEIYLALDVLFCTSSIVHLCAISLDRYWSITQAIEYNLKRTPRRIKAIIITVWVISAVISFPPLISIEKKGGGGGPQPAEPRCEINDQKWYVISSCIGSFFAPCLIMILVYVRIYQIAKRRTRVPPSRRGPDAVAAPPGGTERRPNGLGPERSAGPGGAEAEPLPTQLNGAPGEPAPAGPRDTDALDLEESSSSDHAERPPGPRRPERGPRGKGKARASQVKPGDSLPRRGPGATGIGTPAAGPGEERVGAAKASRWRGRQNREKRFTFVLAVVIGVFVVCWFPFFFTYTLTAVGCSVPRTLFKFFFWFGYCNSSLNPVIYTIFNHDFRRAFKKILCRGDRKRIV
MEASURED_PROPERTY: pKi
In simple prose, pKi is minus the logarithm base ten of a concentration in moles per litre.

Could you share which pKi value was measured for CCC1(CC)CC(CCN2CCN(c3ccc(O)cc3)CC2)OC1=O (stereo not shown) ?
5.46

----------
We begin with a simple list: items and their reported Cmax.
- ASSAY_PROTOCOL: Mouse in vivo pharmacokinetic studies
- Set-up: species or system C57BL/6 male mice
- DETAILS: male, C57BL/6, plasma, IV, 1 mg/kg
Reply with the number, then its unit.

Observe how each entry below is paired with its result.
1. CCC1(CC)C[C@@H](CCN2CCN(c3ccc(O)cc3)CC2)OC1=O = 527 ng/mL
2. CCC1(CC)C[C@H](CCN2CCN(c3ccc(O)cc3)CC2)OC1=O = 148 ng/mL

Please examine the following record next.
Could you share which Cmax value was measured for CCC1(CC)CC(CCN2CCN(c3ccc(O)cc3)CC2)OC1=O (stereo not drawn) ?
81 ng/mL

----------
- SYSTEM: D3 (Homo sapiens, UniProt P35462)
- Sequence (P35462 whole entry): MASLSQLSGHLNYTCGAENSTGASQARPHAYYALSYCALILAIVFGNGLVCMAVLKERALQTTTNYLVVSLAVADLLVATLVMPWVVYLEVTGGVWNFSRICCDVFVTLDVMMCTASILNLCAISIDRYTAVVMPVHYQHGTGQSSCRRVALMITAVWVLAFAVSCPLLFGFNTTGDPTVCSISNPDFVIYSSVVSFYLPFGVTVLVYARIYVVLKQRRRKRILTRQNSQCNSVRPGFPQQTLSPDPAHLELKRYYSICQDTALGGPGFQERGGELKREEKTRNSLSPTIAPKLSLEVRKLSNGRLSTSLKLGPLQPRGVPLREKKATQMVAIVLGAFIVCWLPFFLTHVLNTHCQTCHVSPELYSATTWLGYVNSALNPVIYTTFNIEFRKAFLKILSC
MEASURED_PROPERTY: Ki (µM)
I only need the number, in µM, no unit after it.

Could you share which Ki value was measured for CCC1(CC)CC(CCN2CCN(c3ccc(O)cc3)CC2)OC1=O (stereo not shown) [MC-170073] ?
1.23

----------
- ASSAY_PROTOCOL: Mouse in vivo pharmacokinetic studies
- Design: species or system C57BL/6 male mice
- DETAILS: male, C57BL/6, plasma, IV, 1 mg/kg
MEASURED_PROPERTY: half-life

Observe how each entry below is paired with its result.
1. CCC1(CC)C[C@@H](CCN2CCN(c3ccc(O)cc3)CC2)OC1=O [MC-230078] = 3.97 h
2. CCC1(CC)CC(CCN2CCN(c3ccc(O)cc3)CC2)OC1=O (stereo not drawn) [MC-170073] = 4.4 h

Could you share which half-life value was measured for CCC1(CC)C[C@H](CCN2CCN(c3ccc(O)cc3)CC2)OC1=O [MC-230079] ?
0.335 h

----------
- ASSAY_PROTOCOL: Mouse in vivo pharmacokinetic studies
- Design: species or system C57BL/6 male mice
- DETAILS: male, C57BL/6, plasma, IV, 1 mg/kg
MEASURED_PROPERTY: Tmax (min)
I only need the number, in min, no unit after it.

Observe how each entry below is paired with its result.
1) CCC1(CC)C[C@H](CCN2CCN(c3ccc(O)cc3)CC2)OC1=O = 10
2) CCC1(CC)C[C@@H](CCN2CCN(c3ccc(O)cc3)CC2)OC1=O = 4.98

Please examine the following record next.
Could you share which Tmax value was measured for CCC1(CC)CC(CCN2CCN(c3ccc(O)cc3)CC2)OC1=O (stereo not drawn) ?
15

----------
- SYSTEM: UniProt P11712
- Sequence (P11712 whole entry): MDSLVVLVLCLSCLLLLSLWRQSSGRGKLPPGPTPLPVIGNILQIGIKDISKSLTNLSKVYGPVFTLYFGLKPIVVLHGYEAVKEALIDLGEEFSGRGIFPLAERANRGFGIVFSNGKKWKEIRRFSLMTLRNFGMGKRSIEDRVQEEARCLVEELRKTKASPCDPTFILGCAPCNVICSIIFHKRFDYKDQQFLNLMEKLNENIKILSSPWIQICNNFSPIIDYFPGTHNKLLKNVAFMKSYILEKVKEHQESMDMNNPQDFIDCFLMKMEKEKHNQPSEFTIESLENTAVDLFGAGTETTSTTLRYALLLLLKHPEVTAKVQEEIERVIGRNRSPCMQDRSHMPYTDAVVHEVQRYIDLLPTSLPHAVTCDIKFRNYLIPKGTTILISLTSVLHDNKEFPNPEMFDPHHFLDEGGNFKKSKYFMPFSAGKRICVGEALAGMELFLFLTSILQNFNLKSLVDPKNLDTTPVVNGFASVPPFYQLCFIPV
MEASURED_PROPERTY: IC50

1. CCC1(CC)CC(CCN2CCN(c3ccc(O)cc3)CC2)OC1=O (centres unmarked) = > 10 µM

Please examine the following record next.
# returns recorded IC50 (system: UniProt P11712) for CCC1(CC)C[C@@H](CCN2CCN(c3ccc(O)cc3)CC2)OC1=O
> 10 µM

----------
- ASSAY_PROTOCOL: Microsomal stability assay, human liver microsomes
- Type: in vitro ADME
- DETAILS: 37°C, NADPH regenerating system, read-out: T1/2 HLM
MEASURED_PROPERTY: half-life (h)
I only need the number, in h, no unit after it.

Could you share which half-life value was measured for CCC1(CC)C[C@@H](CCN2CCN(c3ccc(O)cc3)CC2)OC1=O ?
1

----------
- SYSTEM: 5-HT1A, 5-HT1B, 5-HT1D, 5-HT1E, 5-HT2A, 5-HT2B, 5-HT2C, 5-HT3, 5-HT4, 5-HT5A, and 5-HT6
- ASSAY_PROTOCOL: Off-target assessment at other 5-HT receptors (PDSP)
- DETAILS: 1B, 1D, 1E, 2A, 2B, 2C, 3, 4, 5A, 6
pKi: −log10 of the molar value.
We begin with a simple list: items and their reported pKi.

1) CCC1(CC)CC(CCN2CCN(c3ccc(O)cc3)CC2)OC1=O (centres unmarked) [MC-170073] = < 5.00

Please examine the following record next.
Could you share which pKi value was measured for CCC1(CC)C[C@@H](CCN2CCN(c3ccc(O)cc3)CC2)OC1=O [MC-230078] ?
< 5.00

----------
- ASSAY_PROTOCOL: Mouse in vivo pharmacokinetic studies
- Set-up: species or system C57BL/6 male mice
- DETAILS: male, C57BL/6, plasma, IV, 1 mg/kg
We begin with a simple list: items and their reported clearance.
I only need the number, in mL/min, no unit after it.

Observe how each entry below is paired with its result.
1. CCC1(CC)C[C@@H](CCN2CCN(c3ccc(O)cc3)CC2)OC1=O = 1.4
2. CCC1(CC)C[C@H](CCN2CCN(c3ccc(O)cc3)CC2)OC1=O = 4.2

Could you share which clearance value was measured for CCC1(CC)CC(CCN2CCN(c3ccc(O)cc3)CC2)OC1=O (stereo not drawn) ?
2.08

----------
We begin with a simple list: items and their reported half-life.
- ASSAY_PROTOCOL: Mouse in vivo pharmacokinetic studies
- Parameters: species or system C57BL/6 male mice
- DETAILS: male, C57BL/6, plasma, oral gavage, 5 mg/kg
I only need the number, in h, no unit after it.

Observe how each entry below is paired with its result.
1. CCC1(CC)C[C@@H](CCN2CCN(c3ccc(O)cc3)CC2)OC1=O = 3.78
2. CCC1(CC)CC(CCN2CCN(c3ccc(O)cc3)CC2)OC1=O (stereo not drawn) = 3.4

Could you share which half-life value was measured for CCC1(CC)C[C@H](CCN2CCN(c3ccc(O)cc3)CC2)OC1=O ?
0.582

----------
- ASSAY_PROTOCOL: Mouse in vivo pharmacokinetic studies
- Parameters: species or system C57BL/6 male mice
- DETAILS: male, C57BL/6, plasma, oral gavage, 5 mg/kg
MEASURED_PROPERTY: AUC (ng·h/mL)
I only need the number, in ng·h/mL, no unit after it.

Observe how each entry below is paired with its result.
1. CCC1(CC)CC(CCN2CCN(c3ccc(O)cc3)CC2)OC1=O (stereo not drawn) = 124
2. CCC1(CC)C[C@H](CCN2CCN(c3ccc(O)cc3)CC2)OC1=O = 52.5

Could you share which AUC value was measured for CCC1(CC)C[C@@H](CCN2CCN(c3ccc(O)cc3)CC2)OC1=O ?
190

----------
- ASSAY_PROTOCOL: Mouse in vivo pharmacokinetic studies
- Design: species or system C57BL/6 male mice
- DETAILS: male, C57BL/6, plasma, IV, 1 mg/kg
- Method: Adult C57BL/6 male mice (2–4 mo old, body weight ranging from 20 to 25 g, Charles River Laboratories) were maintained under controlled temperature (23 ± 1°C) and lighting (lights on 6:00 AM–6:00 PM) with food and water provided ad libitum. […] Plasma concentrations were determined using an LC-MS/MS method. […] The detection and quantification of analytes were performed with the m/z transition 347/191 for MC-170073, MC-230078, and MC-230079, and m/z 415/178 for diltiazem.
We begin with a simple list: items and their reported AUC.

Observe how each entry below is paired with its result.
1) CCC1(CC)CC(CCN2CCN(c3ccc(O)cc3)CC2)OC1=O (stereo not drawn) [MC-170073] = 142 ng·h/mL
2) CCC1(CC)C[C@H](CCN2CCN(c3ccc(O)cc3)CC2)OC1=O [MC-230079] = 97 ng·h/mL

Please examine the following record next.
Could you share which AUC value was measured for CCC1(CC)C[C@@H](CCN2CCN(c3ccc(O)cc3)CC2)OC1=O [MC-230078] ?
277 ng·h/mL
